target: CDK4/cyclinD3 (Homo sapiens, UniProt P11802); experiment: Cyclin-dependent kinase activity assay (continuous ATP coupling assay), CDK4/cyclinD3; settings: CDK4/cyclinD3 60 nM, ATP 500 μM, Rb copeptide 500 μM, 15 min preincubation, pH 7.5, 1% DMSO
Sequence (P11802 whole entry): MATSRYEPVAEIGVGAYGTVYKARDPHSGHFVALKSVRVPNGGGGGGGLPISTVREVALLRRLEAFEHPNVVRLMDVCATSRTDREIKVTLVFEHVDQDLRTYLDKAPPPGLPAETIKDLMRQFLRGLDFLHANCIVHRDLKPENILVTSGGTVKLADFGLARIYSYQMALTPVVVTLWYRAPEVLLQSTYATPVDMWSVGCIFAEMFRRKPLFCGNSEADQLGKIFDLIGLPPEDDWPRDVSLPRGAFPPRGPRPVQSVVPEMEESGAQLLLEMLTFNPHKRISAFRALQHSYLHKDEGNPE
Sequence (P30281 whole entry partner): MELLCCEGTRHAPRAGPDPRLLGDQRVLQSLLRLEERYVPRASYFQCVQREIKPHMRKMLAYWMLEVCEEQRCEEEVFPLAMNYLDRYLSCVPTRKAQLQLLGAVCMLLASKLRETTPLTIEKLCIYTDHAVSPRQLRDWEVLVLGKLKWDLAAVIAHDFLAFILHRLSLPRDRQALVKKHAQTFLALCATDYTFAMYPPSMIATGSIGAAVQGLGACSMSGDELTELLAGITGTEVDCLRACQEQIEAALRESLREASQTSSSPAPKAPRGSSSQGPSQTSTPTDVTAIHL
The reader will find reported IC50 values listed item by item below.

Some molecules with known IC50 results, for comparison:
CNS(=O)(=O)c1ccc(Nc2ncc(C(F)(F)F)c(-n3cc(CC(C)C)cn3)n2)cc1 :: ≤ 10 nM
CNS(=O)(=O)c1ccc(Nc2ncc(F)c(-n3cc(CC(C)(C)O)cn3)n2)cc1 :: 10 to 100 nM
CNS(=O)(=O)c1ccc(Nc2ncc(C(F)(F)F)c(-n3cc(N4CCNCC4)cn3)n2)cc1 :: 10 to 100 nM

Prompt: Output measured IC50 for this item: CNS(=O)(=O)c1ccc(Nc2ncc(C(F)(F)F)c(-n3cc(C4CCOC4)cn3)n2)cc1 (single isomer, unassigned) [Example 90]
Completion: 10 to 100 nM

Prompt: Consider the molecule `CC1(Nc2ncc(C(F)(F)F)c(-n3cccn3)n2)CCN(S(C)(=O)=O)CC1` and give its recorded IC50.
Completion: ≥ 100 nM

Prompt: Identify measured IC50 associated with `O=S(=O)(NCCO)c1ccc(Nc2ncc(C(F)(F)F)c(-n3cccn3)n2)cc1`
Completion: ≥ 100 nM

Prompt: Identify measured IC50 corresponding to `CNS(=O)(=O)c1ccc(Nc2ncc(C(F)(F)F)c(-n3cc(CC(C)(C)O)cn3)n2)cc1`
Completion: 10 to 100 nM

Prompt: Check the records and state IC50 for `CNS(=O)(=O)c1ccc(Nc2ncc(C(F)(F)F)c(-n3cc(N4CC(O)C4)cn3)n2)cc1`
Completion: ≥ 100 nM

Value source: patent US20260308145A1
